Record set: pKi | Beta-1 adrenergic receptor (Homo sapiens) | literature, multiple sources.
pKi: −log10 of the molar value.

Solved cases (6 shown):
CN1CCc2c(c3cccc4c3n2-c2ccccc2CC4)C1    < 5.00
CC(C)(C)NCC(O)COc1ccc(C(=O)NCCc2ccc(S(N)(=O)=O)cc2)cc1 (stereo not drawn)    < 4.00
N#Cc1cc(F)cc(C#Cc2csc(CF)n2)c1    < 5.00
COc1cccc([C@@H](Cc2ccccc2)NC[C@@H](O)Cc2ccc(O)c(NS(C)(=O)=O)c2)c1    5.44
OCc1cc(C(O)CNCCc2ccc(Br)cc2)ccc1O (racemic)    < 5.00
CC(C)NC[C@H](O)COc1ccccc1CCn1cc(CNCc2cn(CCc3ccccc3OC[C@@H](O)CNC(C)C)nn2)nn1    8.54

Problem: GET /values?readout=pKi&system=Beta-1 adrenergic receptor (Homo sapiens)&item= OCc1cc(C(O)CNCCc2ccc(N3CCC(c4ccccc4)CC3)cc2)ccc1O (racemic)
Result: < 5.00

Problem: GET /values?readout=pKi&system=Beta-1 adrenergic receptor (Homo sapiens)&item= OCc1cc(C(O)CNCCc2ccc(Nc3ccc(O)cc3)cc2)ccc1O (racemic)
Result: 4.40
